melting point reference
measuredQuantity: melting point

INSERT INTO measurements (compound, measuredresult) VALUES
  ('CC1CC(=O)OC(=O)C1', '40 to 45 °C'),
  ('CCCCCC(N)P(=O)(O)O (stereo unspecified)', '265 to 268 °C'),
  ('CCCCCCCCCCCCCCCCOCCOCCOCCOCCOCCOCCOCCOCCOCCOCCOCCOCCOCCOCCOCCOCCOCCOCCOCCOCCO', '35.4 to 39.6 °C'),
  ('S=C(n1ccnc1)n1ccnc1', '96 to 103 °C'),
  ('NC(CO)(Cc1ccccc1)C(=O)O (racemic)', '245 to 263 °C'),
  ('Cc1cc(F)ccc1O', '37 to 38 °C');

====

Label Not met if melting point falls below 100 °C; label Met in every other case.

INSERT INTO measurements (compound, classname) VALUES
  ('CCCCCCCCCCCCCCCCCCCCCC(=O)OC', 'Not met'),
  ('CC(O)(C(=O)O)c1ccccc1 (configuration not stated)', 'Met'),
  ('CCn1cc(C(=O)O)c(=O)c2cnc(N3CCNCC3)nc21', 'Met'),
  ('COc1ccc(/C=N/n2c(S)nnc2C(F)(F)F)cc1', 'Met'),
  ('COc1cc(C=NNC(=O)CCn2c(C)nc3ccccc32)ccc1O', 'Met'),
  ('Nc1ccc(/C(=C\c2ccccc2N)C(=O)O)cc1', 'Met'),
  ('NCCNC(=O)CCn1cnc2c(N)ncnc21', 'Met'),
  ('CCCN(CCOc1c(Cl)cc(Cl)cc1Cl)C(=O)n1ccnc1', 'Not met'),
  ('CCCCCCOCCCCCC', 'Not met'),
  ('CCOc1ccccc1OCCBr', 'Not met'),
  ('N#CC1=C(N)N2C(=C(C#N)C1c1ccccc1)Sc1ccccc12 (configuration not stated)', 'Met'),
  ('O=C1c2ccccc2C(=O)c2c1cccc2[N+](=O)[O-]', 'Met'),
  ('FC(F)(F)C(Cl)(Cl)C(F)(F)Cl', 'Not met');

====

melting point for assorted compounds
measuredQuantity: melting point

INSERT INTO assay_data (compound, measuredresult) VALUES
  ('O=c1c(N2CCCC2)c(N2CCOCC2)c1=O', '251 to 254 °C'),
  ('CC(C)(C)C(CCC(=O)O)CC(=O)O (centres undefined)', '114 to 117 °C'),
  ('BrC(Br)c1ccc(C(Br)Br)cc1', '170 to 173 °C'),
  ('CS(=O)CCC(N)C(=O)O (racemic)', '232 to 234 °C'),
  ('CCSc1sc(C(=O)OC)c2c1C(=O)CC(C)(C)C2', '116 to 119 °C'),
  ('O=C1CCCc2c(O)cccc21', '207 to 210 °C'),
  ('C#CC1(O)CCC2C3CCC4C(C)(C)CCCC4(C)C3CCC21C (centres undefined)', '156 to 158 °C'),
  ('CC(=O)OC1CCC2C3CCC4CC(C#Cc5ccccc5)(OC(C)=O)CCC4(C)C3CCC12C (centres undefined)', '100 to 111 °C'),
  ('CCOC(=O)NNC(=O)Nc1ccccc1', '144 to 145 °C');

====

// melting point lookup, one value per entry
measuredQuantity: melting point

INSERT INTO measurements (smilesinput, measuredquantity, measuredresult) VALUES
  ('Cc1nc(-c2cccc(N)c2)cs1', 'melting point', '101 to 103 °C'),
  ('Nc1cccc(Cn2cncn2)c1', 'melting point', '88 to 89 °C'),
  ('CC1=CC(=O)CC1', 'melting point', '3 to 5 °C');

====

measuredQuantity: melting point

INSERT INTO measurements (compound, measuredresult) VALUES
  ('CC(=O)CCc1oc2ccc(NC(C)=O)cc2c1-c1ccc(C)o1', '131 to 132 °C'),
  ('CC(=O)c1ccc(C2CC2(Cl)Cl)cc1 (centres undefined)', '35 °C'),
  ('Nc1cc2ccccc2c2ccccc12', '138 °C'),
  ('NS(=O)(=O)c1cc2c(cc1Cl)N=C(CSCc1ccccc1)NS2(=O)=O', '232 °C');

====

measuredQuantity: melting point (°C)

INSERT INTO results (molecule, measuredresult) VALUES
  ('Clc1ccc(/C=C(\Oc2ccc(Cl)cc2Cl)c2nc3ccccc3s2)cc1', 156),
  ('O=C1C(c2ccccc2)=[N+]([O-])c2ccccc21', 186),
  ('O=[N+]([O-])c1cc(CCBr)c([N+](=O)[O-])cc1CCBr', 123),
  ('COC(=O)c1cc(C=O)oc1C', 83),
  ('C[Si](C)(C)N=C=S', -32.8),
  ('CN(C)CCc1c[nH]c2cccc(O)c12', 174),
  ('CC(C)N(C(=O)SCC(Cl)=C(Cl)Cl)C(C)C', 29),
  ('CCc1ccc(O)c(OC)c1', 15),
  ('FC(Cl)C(F)(F)F (centres undefined)', -199);

====

measuredQuantity: melting point (°C)

INSERT INTO measurements (compound, measuredresult) VALUES
  ('CCCCCCC(=O)OCCCC', -67.5),
  ('CCCCCCCCOc1ccc(NC(=O)c2ccc(CC)cc2)cc1', 143),
  ('CC12CCC(=O)C=C1CCC1C2C(O)CC2(C=O)C(C(=O)CO)CCC12 (stereo not given)', 167),
  ('CCCCCc1ccc(C(C)=NO)cc1', 68),
  ('Cc1cc(-c2ccccc2)n2nc(C(F)(F)F)nc2n1', 89);

====

Readings of melting point for the listed molecules
measuredQuantity: melting point

INSERT INTO results (smilesinput, measuredresult) VALUES
  ('O=C(O)c1ccc(-c2ccccc2)s1', '188 to 192 °C'),
  ('OCc1cc(O)ccc1I', '146 to 148 °C'),
  ('O=C(Cl)c1csc(-c2cccc(Cl)c2Cl)n1', '108 to 111 °C'),
  ('Cc1ccc(CNC2=CC(=O)c3ccccc3C2=O)nc1', '134 to 136 °C'),
  ('NCc1ccc(OC2CCOCC2)cc1', '41.5 to 43.5 °C'),
  ('COc1cc(Br)cc2cc(C(=O)O)c(=O)oc12', '226 to 228 °C');

====

measuredQuantity: melting point

INSERT INTO assay_data (smilesinput, measuredresult) VALUES
  ('NNC(=O)C(O)(c1ccccc1)c1ccccc1', '168 to 169 °C'),
  ('N#Cc1csc2ccc(Cl)cc12', '121 to 122 °C'),
  ('CCOc1c(NCc2ccccc2)c(=O)c1=O', '68 to 72 °C');

====

Grouping key: melting point. Bins: low: < 30 °C; moderate: ≥ 30 °C and < 100 °C; high: ≥ 100 °C

INSERT INTO measurements (compound, classname) VALUES
  ('C1CCNC1', 'low'),
  ('COc1ccc(NC(=O)c2ccccc2)cc1', 'high'),
  ('CCCCCCCCCCCCCCCC(=O)OCC=C(C)C=CC=C(C)C=CC1=C(C)CCCC1(C)C', 'low'),
  ('O=C1NN(c2ccccc2)C(=O)C1c1ccccc1 (stereo not drawn)', 'high'),
  ('O=c1ccocc1', 'moderate'),
  ('C(=Nc1ccccc1)c1ccccc1', 'moderate'),
  ('Cc1cc(C(=O)O)c(C)n1C', 'high'),
  ('Nc1cccc(S(=O)(=O)c2cccc(N)c2)c1', 'high'),
  ('NCCOc1ccccc1Cl', 'moderate'),
  ('O=C(c1ccc(C(=O)C(Cl)Cl)cc1)C(Cl)Cl', 'high'),
  ('CCCC#CCCCC(=O)O', 'low'),
  ('CCOC(=O)CC=C(c1ccc(OC)cc1)C(C)(C)C(=O)OCC', 'high'),
  ('O=C(CC(=O)C(F)(F)F)c1ccco1', 'low'),
  ('O=C(O)c1cc(Cl)ccc1F', 'high'),
  ('OC12CCCC1c1ccccc12 (stereo not drawn)', 'moderate');

====

Readings of melting point for the listed compounds
measuredQuantity: melting point

INSERT INTO assay_data (compound, measuredquantity, measuredresult) VALUES
  ('NC(=O)c1sccc1Cl', 'melting point', '105 to 107 °C'),
  ('Nc1cccc(-c2ccncc2)c1', 'melting point', '167 to 168 °C'),
  ('CC(O)CC(C)O (centres undefined)', 'melting point', '50 to 52 °C'),
  ('Cc1ccc(Cl)cc1C(=O)O', 'melting point', '168 to 170 °C'),
  ('C=CCn1c(S)nnc1CNC(=O)OC(C)(C)C', 'melting point', '150 to 153 °C'),
  ('COc1ccc(C=CC#N)c(Cl)c1OC', 'melting point', '107 to 110 °C'),
  ('Nc1ccc(Sc2cc(Cl)ccc2Cl)nc1', 'melting point', '108 to 109 °C'),
  ('Nc1n[nH]c(N)c1Cc1ccc(F)cc1', 'melting point', '159 to 161 °C'),
  ('COc1cc(C(O)C(=O)O)ccc1O (centres undefined)', 'melting point', '131 to 134 °C'),
  ('Cn1ccc(-c2ccc(C(=O)Oc3c(F)c(F)c(F)c(F)c3F)cc2)n1', 'melting point', '122 to 124 °C'),
  ('Nc1c(C(F)(F)F)cc(Cl)nc1Cl', 'melting point', '50 to 51 °C'),
  ('Cc1c(-c2ccccc2)sc2ncnc(Cl)c12', 'melting point', '133 to 135 °C'),
  ('O=C(CBr)c1cc(Br)cc2c1OCC2', 'melting point', '132 to 134 °C'),
  ('Cc1nc(-c2ccc(Br)cc2)no1', 'melting point', '98 to 99 °C');
